pIC50: −log10 of the molar value. Bridge positions count the residues as written; N and C are the ends. Square brackets hold non-standard residues; d marks the D form. Peptide text beside a SMILES is read from it. dPen = CC(C)(S)[C@@H](N)C(=O)O; dAbu = CC[C@@H](N)C(=O)O
The reader will find pIC50 measurements below, all made with UniProt P33535.
Sequence (P33535 whole entry): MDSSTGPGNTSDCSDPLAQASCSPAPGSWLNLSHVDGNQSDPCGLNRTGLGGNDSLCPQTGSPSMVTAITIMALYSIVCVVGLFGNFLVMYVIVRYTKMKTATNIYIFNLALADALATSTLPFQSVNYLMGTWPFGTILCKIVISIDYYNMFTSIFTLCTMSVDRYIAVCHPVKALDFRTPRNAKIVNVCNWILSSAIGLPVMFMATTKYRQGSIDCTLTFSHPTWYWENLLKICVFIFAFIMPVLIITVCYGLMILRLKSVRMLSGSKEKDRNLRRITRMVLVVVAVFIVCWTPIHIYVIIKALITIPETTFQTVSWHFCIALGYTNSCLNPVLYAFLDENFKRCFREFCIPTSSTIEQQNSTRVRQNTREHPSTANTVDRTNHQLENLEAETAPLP

[ask] Provide pIC50, system UniProt P33535, entry CC1(C)SSC(C)(C)[C@@H](NC(=O)[C@@H](N)Cc2ccc(O)cc2)C(=O)N[C@H](CO)C(=O)N[C@@H](Cc2ccccc2)C(=O)N[C@H]1C(=O)O (H-Y[dPen][dS]F[dPen]-OH; disulfide 2-5)
[reply] < 4.30

[ask] // fetch pIC50 for CC1(C)SSC(C)(C)[C@@H](NC(=O)[C@@H](N)Cc2ccc(O)cc2)C(=O)N[C@@H](CO)C(=O)N[C@@H](Cc2ccccc2)C(=O)N[C@H]1C(=O)O (H-Y[dPen]SF[dPen]-OH; disulfide 2-5) ; system: UniProt P33535
[reply] < 4.65

[ask] Retrieve pIC50 on UniProt P33535; query CC[C@H]1NC(=O)[C@H](NC(=O)[C@@H](N)Cc2ccc(O)cc2)C(C)(C)SSC(C)(C)[C@H](C(=O)O)NC(=O)[C@H](Cc2ccccc2)NC1=O (H-Y[dPen][dAbu]F[dPen]-OH; disulfide 2-5)
[reply] < 4.30
